assayed.system: T1, recombinant human histidine-tagged CD13 (human, UniProt P15144 69-967, limits assumed)
T1 construct: Histidine tag present; also called aminopeptidase N
T1 sequence (P15144 69-967 limits assumed): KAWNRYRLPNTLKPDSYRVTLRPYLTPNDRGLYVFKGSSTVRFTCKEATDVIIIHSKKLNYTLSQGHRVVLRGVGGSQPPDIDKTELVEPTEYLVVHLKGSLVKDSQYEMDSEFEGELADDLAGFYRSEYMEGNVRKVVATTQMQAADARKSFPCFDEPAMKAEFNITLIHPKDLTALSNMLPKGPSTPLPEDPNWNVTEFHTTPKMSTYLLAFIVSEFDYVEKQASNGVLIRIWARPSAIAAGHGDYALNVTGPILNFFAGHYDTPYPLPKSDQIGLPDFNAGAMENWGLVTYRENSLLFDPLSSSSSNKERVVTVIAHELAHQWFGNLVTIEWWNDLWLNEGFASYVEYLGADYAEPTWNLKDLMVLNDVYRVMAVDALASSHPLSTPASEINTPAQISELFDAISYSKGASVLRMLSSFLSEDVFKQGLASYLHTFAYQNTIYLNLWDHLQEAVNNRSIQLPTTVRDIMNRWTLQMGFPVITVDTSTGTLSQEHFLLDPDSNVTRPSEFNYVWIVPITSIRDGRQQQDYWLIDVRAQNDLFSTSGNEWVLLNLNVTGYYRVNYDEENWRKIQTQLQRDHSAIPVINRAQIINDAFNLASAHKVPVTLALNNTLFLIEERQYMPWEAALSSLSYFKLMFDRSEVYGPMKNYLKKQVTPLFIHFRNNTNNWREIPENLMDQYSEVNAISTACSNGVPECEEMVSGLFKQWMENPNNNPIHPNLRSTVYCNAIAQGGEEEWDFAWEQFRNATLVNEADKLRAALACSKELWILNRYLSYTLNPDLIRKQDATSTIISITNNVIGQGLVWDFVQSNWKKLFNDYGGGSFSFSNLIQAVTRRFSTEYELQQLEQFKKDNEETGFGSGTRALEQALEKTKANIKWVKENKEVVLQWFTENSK
test.method.notes: CD13 enzyme kinetics inhibition, 50 mM Tris-HCl buffer, pH 7.4
Positions of bridges follow the written chain, without caps; N, C: chain ends. No end group written: not given here.
measured.endpoint: Ki
// unit must come after the numeric part

Completed entries (count: 2):
Ac-CNGRCGVRY (disulfide 1-5) [acetylated-CNGRCGVRY peptide]: 38.1 µM
SCNGRCGVRY (disulfide 2-6, Synthetic peptide corresponding to the N-terminal region of human S-NGR-TNF) [SCNGRCGVRY peptide]: 6.8 µM

[ask] So what does the record say about Ki for CNGRCGVRY (disulfide 1-5, Synthetic peptide corresponding to the N-terminal region of human NGR-TNF) [CNGRCGVRY peptide] ?
[reply] 35.6 µM
